Cited source for all entries: patent US7910579B2

TEST DETAILS: Evaluation of Brain-Penetration and Bone-Seeking Properties of the Labeled Compound in Mouse
Format: in vivo
CONDITION PARAMETERS: male ICR mouse, intravenous, 2 min
Method: Separated HPLC fractions containing [^18F] THK-702, [^18F] THK-761, [^18F] THK-763 or [^18F] […] Saline containing [^18F] […] THK-763 was administered by intravenous injection through the tail vein of male ICR mouse (6 to 7 week), and brain-penetration and bone-seeking properties of each labeled compound was evaluated in the terms of seeking property of radioactivity in brain-tissue and bone tissue at 2, 30, 60 minutes after the injection. […]
Give Brain radioactivity for every item shown.
Output spec: scalar in % ID/g, unitless text.

input: Return reported Brain radioactivity; argument: CN(C)c1ncc(/C=C/c2nc3ccc(OC(CO)CF)cc3o2)s1 (stereo not shown) [[^18F]THK-763]
output: 4.64

input: Return reported Brain radioactivity; argument: CNc1ncc(/C=C/c2nc3ccc(OC(CO)CF)cc3o2)s1 (stereo not shown) [[^18F]THK-761]
output: 1.67

input: Return reported Brain radioactivity; argument: OCC(CF)Oc1ccc2nc(/C=C/c3cnc(N4CCOCC4)s3)oc2c1 (stereo not shown) [[^18F]THK-702]
output: 4.15

input: Return reported Brain radioactivity; argument: CN(C)c1ncc(C=Cc2nc3ccc(OCCF)cc3o2)s1 [[^18F]BF-227, reference compound]
output: 6.05

---

Tested on: histidine-requiring Salmonella typhimurium TA100 and TA98 strains
TEST DETAILS: Mutagenicity Test (reverse mutation test)
Format: cell-based
CONDITION PARAMETERS: reverse mutation test, -S9mix
ENDPOINT: Relative Activity in the absence of S9Mix

INSERT INTO measurements (compound, value) VALUES
  ('OCC(CF)Oc1ccc2nc(/C=C/c3cnc(N4CCCC4)s3)oc2c1 (stereo not drawn)', 'minus'),
  ('CN1CCN(c2ncc(/C=C/c3nc4ccc(OC(CO)CF)cc4o3)s2)CC1 (stereo not drawn)', 264),
  ('OCC(CF)Oc1ccc2nc(/C=C/c3cnc(N4CCCCC4)s3)oc2c1 (stereo not drawn)', 'minus');
